The measurements presented in this section are drawn from the supplement of paper PMC6555819.

- Test system: THRa homodimer (NR concentration 90 nM)
- protocol-description: PBM binding z-score (relative to random genomic background probes); higher = stronger binding; sequences stand for … in GC…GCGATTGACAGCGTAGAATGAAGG
parameter: PBM binding z-score

Example entries and their recorded answers appear below.
| sequence-content | PBM binding z-score |
| --- | --- |
| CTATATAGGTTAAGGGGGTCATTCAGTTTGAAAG | 1.99 |
| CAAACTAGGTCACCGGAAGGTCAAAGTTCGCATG | 3 |
| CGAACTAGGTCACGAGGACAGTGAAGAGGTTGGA | 2.61 |
| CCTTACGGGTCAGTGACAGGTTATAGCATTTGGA | 0.134 |

// next entry
Which PBM binding z-score is listed for `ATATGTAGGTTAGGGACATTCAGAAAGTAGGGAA` ?
1.51

====

- Tested on: FXR:RXRa (NR concentration 270 nM, RXRa partner concentration 90 nM)
- protocol-description: PBM binding z-score (relative to random genomic background probes); higher = stronger binding; sequences stand for … in GC…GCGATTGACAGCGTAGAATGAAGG
parameter: PBM binding z-score
Just the number.

// solved cases for PBM binding z-score follow
| sequence-content | target-system | PBM binding z-score |
| --- | --- | --- |
| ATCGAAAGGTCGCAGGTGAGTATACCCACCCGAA | FXR:RXRa (NR concentration 270 nM, RXRa partner concentration 90 nM) | 4.98 |
| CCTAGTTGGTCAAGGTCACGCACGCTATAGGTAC | FXR:RXRa (NR concentration 270 nM, RXRa partner concentration 90 nM) | 4.95 |
| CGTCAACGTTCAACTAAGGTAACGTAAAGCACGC | FXR:RXRa (NR concentration 270 nM, RXRa partner concentration 90 nM) | 0.828 |
| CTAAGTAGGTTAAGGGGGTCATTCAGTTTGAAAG | FXR:RXRa (NR concentration 270 nM, RXRa partner concentration 90 nM) | 5.01 |
| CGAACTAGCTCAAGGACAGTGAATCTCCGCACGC | FXR:RXRa (NR concentration 270 nM, RXRa partner concentration 90 nM) | 0.148 |

I would be grateful if you could share the reported PBM binding z-score for `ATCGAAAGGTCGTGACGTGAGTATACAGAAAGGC` .
5.34

Which PBM binding z-score value belongs to `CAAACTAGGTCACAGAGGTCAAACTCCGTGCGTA` ?
7.52

Return reported PBM binding z-score; argument: `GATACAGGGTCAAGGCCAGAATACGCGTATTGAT`
6.98

Query (sequence): `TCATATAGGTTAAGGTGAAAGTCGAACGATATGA` ; field requested: PBM binding z-score
2.27

Quick one: PBM binding z-score of `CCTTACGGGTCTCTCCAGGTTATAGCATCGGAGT` ?
0.0576

Fill in the blank: the reported PBM binding z-score of `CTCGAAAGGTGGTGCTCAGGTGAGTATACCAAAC` is ____.
-0.352

GET /values?readout=PBM binding z-score&item= `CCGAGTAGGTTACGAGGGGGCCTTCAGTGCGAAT`
0.952

Could you tell me which PBM binding z-score is on file for `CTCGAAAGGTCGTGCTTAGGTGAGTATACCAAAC` ?
4.83

Need PBM binding z-score of `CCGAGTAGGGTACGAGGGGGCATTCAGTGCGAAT` , thanks.
1.83

I would be grateful if you could share the reported PBM binding z-score for `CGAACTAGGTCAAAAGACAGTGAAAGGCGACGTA` .
3.09

// returns reported PBM binding z-score for input `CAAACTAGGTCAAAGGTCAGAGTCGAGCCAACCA`
7.83

Please give the measured PBM binding z-score for this sequence: `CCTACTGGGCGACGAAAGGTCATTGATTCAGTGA`
3.21

Can you look up the measured PBM binding z-score of `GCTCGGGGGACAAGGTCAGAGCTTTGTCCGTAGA` for me?
3.46
